The values you see were collected from PubChem BioAssay (NCI).

Test system: NCI-H322M lung
Assay comment: NCI-60 one-dose screen, 48 h
Experimental setup: 10 µM unless noted
Compounds without any hit were thinned out: in the full panel of roughly 83,000, 20% have a hit. Calls of active or inactive are those of the source. The calls were made as follows: active = growth percent below 10; inactive = the rest.
# valid calls are y (active), n (inactive); nothing else

Some solved entries appear below for comparison.
CC(C)(C)c1nn(-c2ccccc2)c2c1COCN2Cc1ccc(Cl)cc1 = n
Nc1c(C(=O)Nc2ccccc2Cl)sc2nc3c(cc12)CN(Cc1ccccc1)CC3 = n
COc1ccc2nc3c(n2c1)C(=O)C(=O)c1ccccc1-3 = y
Nc1cc(N)c(S(=O)(=O)O)cc1N=Nc1cc([N+](=O)[O-])ccc1O = n

So what was the verdict on COc1ccc(/C=C/C(=O)c2ccc(NC(=O)CSc3nnc(-c4ccc(OC)c(OC)c4)n3-c3ccccc3)cc2)cc1 in this test?
n

So what was the verdict on COc1ccc2cc(/C=C3\N=C(c4cc(OC)c(OC)c(OC)c4)OC3=O)c(OC)nc2c1 in this test?
n

So what was the verdict on COc1cc(NC(=O)c2cc(O)c(C/C=C(\C)CCC=C(C)C)c(O)c2)cc2c1O[C@]1(C)CC[C@@H](O)C(C)(C)[C@H]1C2 in this test?
n

So what was the verdict on COc1ccc(Cl)c([N+](=O)[O-])c1 in this test?
n

So what was the verdict on Cc1cc(O)cc(O)c1N=NC1=NCCS1 in this test?
n

So what was the verdict on COC(=O)c1oc2c(C(=O)/C=C/c3ccc(OC)cc3)c(OCCCN3CCCCC3)ccc2c1C in this test?
n

###

Test system: MDA-MB-435 melanoma
Assay comment: NCI-60 one-dose screen, 48 h (100 = growth as untreated, 0 = no growth, -100 = all killed)
Experimental setup: 10 µM unless noted
About 83,000 compounds went through this panel and 20% of them were active in at least one assay; those are over-represented in the sample as a whole.
growth listing for selected compounds.
Numeric answer only, unit % assumed.

CC(=O)[C@@H]1CC[C@]2(C(=O)O)CC[C@]3(C)[C@H](CC[C@@H]4[C@@]5(C)Cc6c([nH]c7ccccc67)C(C)(C)[C@@H]5CC[C@]43C)[C@@H]12 = 81.2

Name the reported growth value associated with the compound COc1ccc(-c2cn(-c3ccc(Cl)cc3)c(=S)[nH]2)cc1OC
86.1

Name the reported growth value associated with the compound C/C(=N\NC(=O)c1ccncc1)c1ccc(N)cc1
102

Name the reported growth value associated with the compound CC(=O)c1ccc(NC(=O)CSc2nnc(-c3cc(-c4ccc(Cl)cc4)nc4ccccc34)o2)cc1
85.5

###

Test system: HCT-15 colon
Assay comment: NCI-60 one-dose screen, 48 h (100 = growth as untreated, 0 = no growth, -100 = all killed)
Experimental setup: 10 µM unless noted
Experimental: Growth inhibition of the HCT-15 human tumor cell line is measured as a screen for anti-cancer activity. Cells are grown in 96 well plates and exposed to the test compound for 48 hours. Compounds are tested at a single concentration, which is 10^-5 M for most compounds. The reported endpoint is percent growth (GI% or GIPRCNT), where numbers from 0 - 100% represent growth inhibition, and numbers from -100% - 0 represent cell death. For example, a value of 40 represents 60% growth inhibition. […]
This is part of a sample that, as a whole, favours compounds with a hit. Of some 83,000 tested, about 20% had one in any assay.
Lab note: class by growth, see lo = under 20%, mid = from 20% up to 80%, hi = 80% and over

Some solved entries appear below for comparison.
C[C@H]1[C@H](C)CC[C@]2(C(=O)OCCCC[P+](c3ccccc3)(c3ccccc3)c3ccccc3)CC[C@]3(C)C(=CC[C@@H]4[C@@]5(C)CC[C@H](OC(=O)C(Cl)Cl)C(C)(C)[C@@H]5CC[C@]43C)[C@H]12 = lo
CC(=O)Nc1nc2c(c(N)c1C#N)C(c1cccc(Cl)c1)C1=C(CCCC1=O)N2c1sc2c(c1C#N)CCCC2 (centres undefined) = mid

Dear colleague, I would appreciate it if you could identify the bin for CCCNc1nc(C)[nH]c(=O)c1S and reply at your convenience.
hi

Dear colleague, I would appreciate it if you could identify the bin for CCCn1cc(/C=N\N=C2\C(=O)Nc3ccc(C)cc32)c2ccccc21 and reply at your convenience.
mid
